Source of measurements: ChEMBL document CHEMBL4402510

Tested on: Mycobacterium tuberculosis
Assay: Antibacterial activity against Mycobacterium tuberculosis H37Rv
Assay type: functional
quantity: MIC (µg/mL)
Give bare numbers, in µg/mL.

sample-smiles: CCCCCCCCCCCCCCCCNC(=O)C1=CCN(C)[C@@H]([C@H](O[C@@H]2O[C@H](CN)[C@@H](O)[C@H]2O)[C@H]2O[C@@H](n3ccc(=O)[nH]c3=O)[C@H](O)[C@@H]2O)C(=O)N1C
measurement-target: Mycobacterium tuberculosis
quantity: MIC
value-units: µg/mL
assay-value: 3.13
//
sample-smiles: CCCCCCCCCCOC(=O)C1=CCN(C)[C@@H]([C@H](O[C@@H]2O[C@H](CN)[C@@H](O)[C@H]2O)[C@H]2O[C@@H](n3ccc(=O)[nH]c3=O)[C@H](O)[C@@H]2O)C(=O)N1C
measurement-target: Mycobacterium tuberculosis
quantity: MIC
value-units: µg/mL
assay-value: 12.5

MIC lookup needed for `CCCCCCCCCCCCCCc1ccc(NC(=O)C2=CCN(C)[C@@H]([C@H](O[C@@H]3O[C@H](CN)[C@@H](O)[C@H]3O)[C@H]3O[C@@H](n4ccc(=O)[nH]c4=O)[C@H](O)[C@@H]3O)C(=O)N2C)cc1` , thanks.
3.13

----------
Tested on: Mycolicibacterium smegmatis
Assay: Antibacterial activity against Mycobacterium smegmatis ATCC 607
Assay type: functional
I'd appreciate it if you could supply MIC values for the items below.
Answers are plain numbers, in µg/mL.

sample-smiles: CN1C(=O)[C@H]([C@H](O[C@@H]2O[C@H](CN)[C@@H](O)[C@H]2O)[C@H]2O[C@@H](n3ccc(=O)[nH]c3=O)[C@H](O)[C@@H]2O)N(C)CC=C1C(=O)Nc1ccc(C2CCCCC2)cc1
assay-value: 1.56

Please state MIC for every molecule in the list that follows.
1. CCCCCCCCCNC(=O)C1=CCN(C)[C@@H]([C@H](O[C@@H]2O[C@H](CN)[C@@H](O)[C@H]2O)[C@H]2O[C@@H](n3ccc(=O)[nH]c3=O)[C@H](O)[C@@H]2O)C(=O)N1C
2. C=CCCCCCCCCCOC(=O)C1=CCN(C)[C@@H]([C@H](O[C@@H]2O[C@H](CN)[C@@H](O)[C@H]2O)[C@H]2O[C@@H](n3ccc(=O)[nH]c3=O)[C@H](O)[C@@H]2O)C(=O)N1C
3. CCCCCCc1ccc(NC(=O)C2=CCN(C)[C@@H]([C@H](O[C@@H]3O[C@H](CN)[C@@H](O)[C@H]3O)[C@H]3O[C@@H](n4ccc(=O)[nH]c4=O)[C@H](O)[C@@H]3O)C(=O)N2C)cc1
4. CCCCCCCCCCCCCCCCCCCNC(=O)C1=CCN(C)[C@@H]([C@H](O[C@@H]2O[C@H](CN)[C@@H](O)[C@H]2O)[C@H]2O[C@@H](n3ccc(=O)[nH]c3=O)[C@H](O)[C@@H]2O)C(=O)N1C
5. CCCCCCCOc1ccc(NC(=O)C2=CCN(C)[C@@H]([C@H](O[C@@H]3O[C@H](CN)[C@@H](O)[C@H]3O)[C@H]3O[C@@H](n4ccc(=O)[nH]c4=O)[C@H](O)[C@@H]3O)C(=O)N2C)cc1
6. CCCCCCCCCCCCCCCCNC(=O)C1=CCN(C)[C@@H]([C@H](O[C@@H]2O[C@H](CN)[C@@H](O)[C@H]2O)[C@H]2O[C@@H](n3ccc(=O)[nH]c3=O)[C@H](O)[C@@H]2O)C(=O)N1C

1. 0.78
2. 25
3. 1.56
4. 12.5
5. 0.78
6. 0.78

MIC lookup needed for `CCCCCCCCCCCCCCCCCCCCNC(=O)C1=CCN(C)[C@@H]([C@H](O[C@@H]2O[C@H](CN)[C@@H](O)[C@H]2O)[C@H]2O[C@@H](n3ccc(=O)[nH]c3=O)[C@H](O)[C@@H]2O)C(=O)N1C` , thanks.
6.25

----------
Biological target: Phospho-N-acetylmuramoyl-pentapeptide-transferase (Aquifex aeolicus (strain VF5), UniProt O66465)
Sequence (O66465 whole entry): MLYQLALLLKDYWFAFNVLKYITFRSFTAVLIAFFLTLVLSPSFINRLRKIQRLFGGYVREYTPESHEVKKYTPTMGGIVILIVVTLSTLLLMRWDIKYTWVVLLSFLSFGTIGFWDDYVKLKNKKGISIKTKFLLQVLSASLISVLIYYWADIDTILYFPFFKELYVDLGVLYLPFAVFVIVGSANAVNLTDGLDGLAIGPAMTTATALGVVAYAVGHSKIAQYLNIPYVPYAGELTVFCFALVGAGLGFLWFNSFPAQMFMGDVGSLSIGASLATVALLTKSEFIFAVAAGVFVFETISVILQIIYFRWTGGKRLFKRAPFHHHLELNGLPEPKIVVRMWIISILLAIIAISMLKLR
Experiment: Inhibition of MraY in Aquifex aeolicus
quantity: pIC50
Answers are plain numbers, as −log10 of the molar value.

Example compounds with recorded pIC50:
sample-smiles: NC[C@H]1O[C@@H](O[C@@H](Cn2cc(CCCCCCCCCCc3ccccc3)nn2)[C@H]2O[C@@H](n3ccc(=O)[nH]c3=O)[C@H](O)[C@@H]2O)[C@H](O)[C@@H]1O
assay-value: 4.52
--
sample-smiles: NC[C@H]1O[C@@H](O[C@@H](Cc2cn(CCCCCCCCCCOc3ccc(C(=O)c4ccccc4)cc3)nn2)[C@H]2O[C@@H](n3ccc(=O)[nH]c3=O)[C@H](O)[C@@H]2O)[C@H](O)[C@@H]1O
assay-value: 4.60

Next:
pIC50 lookup needed for `NC[C@H]1O[C@@H](O[C@@H](Cn2cc(CCOCCOCCOCCOCCO)nn2)[C@H]2O[C@@H](n3ccc(=O)[nH]c3=O)[C@H](O)[C@@H]2O)[C@H](O)[C@@H]1O` , thanks.
3.35

----------
I'd appreciate it if you could supply MIC values for the items below.
System: Enterococcus faecium
Test: Antibacterial activity against Enterococcus faecium ATCC 19434
Type: functional
Numbers only, in µg/mL.

sample-smiles: CCCCCCCCCCCCCCCCC[C@H]1CN(C)[C@@H]([C@H](O[C@@H]2O[C@H](CN)[C@@H](O)[C@H]2O)[C@H]2O[C@@H](n3ccc(=O)[nH]c3=O)[C@H](O)[C@@H]2O)C(=O)N(C)[C@@H]1C(=O)O
MIC [µg/mL]: 8

MIC lookup needed for `CCCCCCCCC(CCCCCCCC)C(=O)N[C@@H]1CCN[C@@H]([C@H](O[C@@H]2O[C@H](CN)[C@@H](O)[C@H]2O)[C@H]2O[C@@H](n3ccc(=O)[nH]c3=O)[C@H](O)[C@@H]2O)C1` , thanks.
8

----------
I'd appreciate it if you could supply MIC values for the items below.
System: Staphylococcus aureus
Experiment: Antibacterial activity against methicillin resistant Staphylococcus aureus SR3637
Assay type: functional
Numbers only, in µg/mL.

compound: CCCCCCCCC(CCCCCCCC)C(=O)N[C@@H]1CCN[C@@H]([C@H](O[C@@H]2O[C@H](CN)[C@@H](O)[C@H]2O)[C@H]2O[C@@H](n3ccc(=O)[nH]c3=O)[C@H](O)[C@@H]2O)C1
MIC (µg/mL): 8

Please state MIC for every compound in the list that follows.
1. CCCCCCCCCCCCCCCC(=O)N[C@@H]1CCN[C@@H]([C@H](O[C@@H]2O[C@H](CN)[C@@H](O)[C@H]2O)[C@H]2O[C@@H](n3ccc(=O)[nH]c3=O)[C@H](O)[C@@H]2O)C1
2. CCCCCCCCCCCCCCC[C@H](NC(=O)[C@@H](N)CCCNC(=N)N)C(=O)NC[C@@H]1CC[C@H]2C(C(=O)N1)[C@H]([C@H]1O[C@@H](n3ccc(=O)[nH]c3=O)[C@H](O)[C@@H]1O)ON2CCCN (single isomer, unassigned)
3. CCCCCCCCCCCCCCC[C@H](NC(=O)[C@@H](N)CCCNC(=N)N)C(=O)NC[C@@H]1CC2[C@@H](C(=O)N1)[C@H]([C@H]1O[C@@H](n3ccc(=O)[nH]c3=O)[C@H](O)[C@@H]1O)ON2CCCN (single isomer, unassigned)
4. CCCCCCCCCCCCCC(=O)N[C@@H]1CCN[C@@H]([C@H](O[C@@H]2O[C@H](CN)[C@@H](O)[C@H]2O)[C@H]2O[C@@H](n3ccc(=O)[nH]c3=O)[C@H](O)[C@@H]2O)C1
5. CCCCCCCCCCCCCCCC(=O)NC[C@@H]1CC2[C@H](C(=O)N1CCCNC(=N)N)[C@@H]([C@H]1O[C@@H](n3ccc(=O)[nH]c3=O)[C@H](O)[C@@H]1O)ON2CCCN (single isomer, unassigned)
6. CCCCCCCCCCCCCCCC(=O)N[C@H]1CCN[C@H]([C@H](O[C@@H]2O[C@H](CN)[C@@H](O)[C@H]2O)[C@H]2O[C@@H](n3ccc(=O)[nH]c3=O)[C@H](O)[C@@H]2O)C1

[16, 32, 32, 32, 16, 8]

----------
I'd appreciate it if you could supply MIC values for the items below.
Tested on: Haemophilus influenzae
Assay: Antibacterial activity against Haemophilus influenzae after 20 hrs by NCCLS-based two-fold broth dilution method
Format: functional

Example molecules with recorded MIC:
sample-smiles: CCCCCCCCC(CCCCCCCC)C(=O)N[C@@H]1CCN[C@@H]([C@H](O[C@@H]2O[C@H](CN)[C@@H](O)[C@H]2O)[C@H]2O[C@@H](n3ccc(=O)[nH]c3=O)[C@H](O)[C@@H]2O)C1
quantity: MIC
assay-value: 16 µg/mL
//
sample-smiles: CCCCCCCCCCCCCCCC(=O)OC[C@H]1[C@@H](C(=O)N(C)C)[C@H]([C@H]2O[C@@H](n3ccc(=O)[nH]c3=O)[C@H](O)[C@@H]2O)ON1CCCN
quantity: MIC
assay-value: 1 µg/mL

Observed MIC on Haemophilus influenzae for `CCCCCCCCCCCCCC(=O)N[C@@H]1CCN[C@@H]([C@H](O[C@@H]2O[C@H](CN)[C@@H](O)[C@H]2O)[C@H]2O[C@@H](n3ccc(=O)[nH]c3=O)[C@H](O)[C@@H]2O)C1` , please.
32 µg/mL
